The reported numbers originate from patent US11395857B2.

# PROTOCOL_DETAILS: Biodistribution of 177Lu-labeled αMSH analogues in mice bearing B16F10 mouse melanoma
# Type: in vivo, C57BL/6J mice
# CONDITION_CONTEXT: mouse, pancreas, iv, total radioactivity; 1 h p.i., C57BL/6J mice, B16F10 melanoma; read-out: Biodistribution, Pancreas
Exercise: state measured tissue uptake at 1 h for each of the compounds provided.
Numbers only here, please. The scale is %ID/g.

Incoming: Would you mind telling me what tissue uptake at 1 h value was observed for CCCC[C@H](NC(=O)CN1CCC(NC(=O)CN2CCN(CC(=O)O)CCN(CC(=O)O)CCN(CC(=O)O)CC2)CC1)C(=O)N[C@H]1CC(=O)NCCCC[C@@H](C(N)=O)N(C)C(=O)[C@H](Cc2c[nH]c3ccccc23)N(C)C(=O)[C@H](CCCNC(=N)N)N(C)C(=O)[C@@H](Cc2ccccc2)NC(=O)[C@H](Cc2c[nH]cn2)N(C)C1=O [^177Lu-labeled CCZ01099, metal not drawn] ?
Outgoing: 0.13

Incoming: Bench note: what tissue uptake at 1 h did CCCC[C@H](NC(=O)CN1CCC(NC(=O)[C@H](CCCCNC(=O)CN2CCN(CC(=O)O)CCN(CC(=O)O)CCN(CC(=O)O)CC2)NC(=O)[C@H](CCC(=O)O)NC(=O)CCCc2ccc(I)cc2)CC1)C(=O)N[C@H]1CC(=O)NCCCC[C@@H](C(N)=O)N(C)C(=O)[C@H](Cc2c[nH]c3ccccc23)NC(=O)[C@H](CCCNC(=N)N)N(C)C(=O)[C@@H](Cc2ccccc2)NC(=O)[C@H](Cc2c[nH]cn2)NC1=O [^177Lu-labeled CCZ01118, metal not drawn] show?
Outgoing: 1.13

Incoming: tissue uptake at 1 h for CCCC[C@H](NC(=O)CN1CCC(NC(=O)CN2CCN(CC(=O)O)CCN(CC(=O)O)CCN(CC(=O)O)CC2)CC1)C(=O)N[C@H]1CC(=O)NCCCC[C@@H](C(N)=O)N(C)C(=O)[C@H](Cc2c[nH]c3ccccc23)NC(=O)[C@H](CCCNC(=N)N)N(C)C(=O)[C@@H](Cc2ccccc2)NC(=O)[C@H](Cc2c[nH]cn2)NC1=O [^177Lu-labeled CCZ01106, metal not drawn] ?
Outgoing: 0.15

Incoming: // returns reported tissue uptake at 1 h for input CCCC[C@H](NC(=O)CN1CCC(NC(=O)[C@H](CCCCNC(=O)CN2CCN(CC(=O)O)CCN(CC(=O)O)CCN(CC(=O)O)CC2)NC(=O)[C@H](CCC(=O)O)NC(=O)CCCc2ccc(I)cc2)CC1)C(=O)N[C@H]1CC(=O)NCCCC[C@@H](C(N)=O)N(C)C(=O)[C@H](Cc2c[nH]c3ccccc23)N(C)C(=O)[C@H](CCCNC(=N)N)N(C)C(=O)[C@@H](Cc2ccccc2)NC(=O)[C@H](Cc2c[nH]cn2)N(C)C1=O [^177Lu-labeled CCZ01088, metal not drawn]
Outgoing: 1.23

Incoming: Record request: tissue uptake at 1 h value, item CCCC[C@H](NC(=O)CN1CCC(NC(=O)[C@H](CCCCNC(=O)CN2CCN(CC(=O)O)CCN(CC(=O)O)CCN(CC(=O)O)CC2)NC(=O)[C@H](CCC(=O)O)NC(=O)CCCc2ccc(I)cc2)CC1)C(=O)N[C@H]1CC(=O)NCCCC[C@@H](C(N)=O)NC(=O)[C@H](Cc2c[nH]c3ccccc23)NC(=O)[C@H](CCCNC(=N)N)NC(=O)[C@@H](Cc2ccccc2)NC(=O)[C@H](Cc2c[nH]cn2)NC1=O [^177Lu-labeled CCZ01082, metal not drawn]
Outgoing: 1.14

* * *

# PROTOCOL_DETAILS: Biodistribution of 177Lu-labeled αMSH analogues in mice bearing SK-MEL-1 human melanoma
# CONDITION_CONTEXT: male, NRG (NOD.Cg-Rag1tm1Mom Il2rgtm1Wjl/SzJ), mouse, heart, total radioactivity
Field: tissue uptake at 24 h. Provide a value for each of the molecules that follow.
// units = %ID/g; emit number, no label

Incoming: tissue uptake at 24 h lookup needed for CCCC[C@H](NC(=O)CN1CCC(NC(=O)[C@H](CCCCNC(=O)CN2CCN(CC(=O)O)CCN(CC(=O)O)CCN(CC(=O)O)CC2)NC(=O)[C@H](CCC(=O)O)NC(=O)CCCc2ccc(I)cc2)CC1)C(=O)N[C@H]1CC(=O)NCCCC[C@@H](C(N)=O)N(C)C(=O)[C@H](Cc2c[nH]c3ccccc23)NC(=O)[C@H](CCCNC(=N)N)N(C)C(=O)[C@@H](Cc2ccccc2)NC(=O)[C@H](Cc2c[nH]cn2)NC1=O [^177Lu-labeled CCZ01118, metal not drawn] , thanks.
Outgoing: 0.14

Incoming: Looking for the measured tissue uptake at 24 h of CCCC[C@H](NC(=O)CN1CCC(NC(=O)[C@H](CCCCNC(=O)CN2CCN(CC(=O)O)CCN(CC(=O)O)CCN(CC(=O)O)CC2)NC(=O)CNC(=O)CCCc2ccc(I)cc2)CC1)C(=O)N[C@H]1CC(=O)NCCCC[C@@H](C(N)=O)N(C)C(=O)[C@H](Cc2c[nH]c3ccccc23)NC(=O)[C@H](CCCNC(=N)N)N(C)C(=O)[C@@H](Cc2ccccc2)NC(=O)[C@H](Cc2c[nH]cn2)NC1=O [^177Lu-labeled CCZ01148, metal not drawn] , can you help?
Outgoing: 4.57

Incoming: Quick one: tissue uptake at 24 h for CCCC[C@H](NC(=O)CN1CCC(NC(=O)[C@H](CCCCNC(=O)CN2CCN(CC(=O)O)CCN(CC(=O)O)CCN(CC(=O)O)CC2)NC(=O)CNC(=O)CCCc2ccc(-c3ccc(C)cc3)cc2)CC1)C(=O)N[C@H]1CC(=O)NCCCC[C@@H](C(N)=O)N(C)C(=O)[C@H](Cc2c[nH]c3ccccc23)NC(=O)[C@H](CCCNC(=N)N)N(C)C(=O)[C@@H](Cc2ccccc2)NC(=O)[C@H](Cc2c[nH]cn2)NC1=O [^177Lu-labeled CCZ01158, metal not drawn] ?
Outgoing: 0.5

* * *

# PROTOCOL_DETAILS: Biodistribution of 68Ga-labeled peptide in mice bearing B16F10 mouse melanoma
# Assay type: in vivo, C57BL/6J mice
# CONDITION_CONTEXT: C57BL/6J, lungs, iv, with BMS 470539 (MC1R-specific inhibitor), 0.5 mg co-injected, total radioactivity, 1 h p.i. blocked, co-injection of 0.5 mg BMS 470539, read-out: Biodistribution, Lungs
READOUT_TYPE: tissue uptake at 1 h (%ID/g)
Reply with just the number (in %ID/g).

Incoming: Requested field: tissue uptake at 1 h. Item: CCCC[C@H](NC(=O)CN1CCC(NC(=O)CN2CCN(CC(=O)O)CCN(CC(=O)O)CCN(CC(=O)O)CC2)CC1)C(=O)N[C@H]1CC(=O)NCCCC[C@@H](C(N)=O)N(C)C(=O)[C@H](Cc2c[nH]c3ccccc23)N(C)C(=O)[C@H](CCCNC(=N)N)N(C)C(=O)[C@@H](Cc2ccccc2)NC(=O)[C@H](Cc2c[nH]cn2)N(C)C1=O [^68Ga-labeled CCZ01099, metal not drawn]
Outgoing: 0.34

* * *

For each record, write down the corresponding tissue uptake at 120 h.
# PROTOCOL_DETAILS: Biodistribution of 177Lu-labeled αMSH analogues in mice bearing SK-MEL-1 human melanoma
# CONDITION_CONTEXT: male, NRG (NOD.Cg-Rag1tm1Mom Il2rgtm1Wjl/SzJ), mouse, heart, total radioactivity
Form entry: value (%ID/g) — number only.

Incoming: Which measured tissue uptake at 120 h value corresponds to CCCC[C@H](NC(=O)CN1CCC(NC(=O)[C@H](CCCCNC(=O)CN2CCN(CC(=O)O)CCN(CC(=O)O)CCN(CC(=O)O)CC2)NC(=O)CNC(=O)CCCc2ccc(-c3ccc(C)cc3)cc2)CC1)C(=O)N[C@H]1CC(=O)NCCCC[C@@H](C(N)=O)N(C)C(=O)[C@H](Cc2c[nH]c3ccccc23)NC(=O)[C@H](CCCNC(=N)N)N(C)C(=O)[C@@H](Cc2ccccc2)NC(=O)[C@H](Cc2c[nH]cn2)NC1=O [^177Lu-labeled CCZ01158, metal not drawn] ?
Outgoing: 0.3

Incoming: I would be grateful if you could share the reported tissue uptake at 120 h for CCCC[C@H](NC(=O)CN1CCC(NC(=O)[C@H](CCCCNC(=O)CN2CCN(CC(=O)O)CCN(CC(=O)O)CCN(CC(=O)O)CC2)NC(=O)[C@H](CCC(=O)O)NC(=O)CCCc2ccc(I)cc2)CC1)C(=O)N[C@H]1CC(=O)NCCCC[C@@H](C(N)=O)N(C)C(=O)[C@H](Cc2c[nH]c3ccccc23)NC(=O)[C@H](CCCNC(=N)N)N(C)C(=O)[C@@H](Cc2ccccc2)NC(=O)[C@H](Cc2c[nH]cn2)NC1=O [^177Lu-labeled CCZ01118, metal not drawn] .
Outgoing: 0.08

Incoming: So what does the record say about tissue uptake at 120 h for CCCC[C@H](NC(=O)CN1CCC(NC(=O)[C@H](CCCCNC(=O)CN2CCN(CC(=O)O)CCN(CC(=O)O)CCN(CC(=O)O)CC2)NC(=O)CNC(=O)CCCc2ccc(I)cc2)CC1)C(=O)N[C@H]1CC(=O)NCCCC[C@@H](C(N)=O)N(C)C(=O)[C@H](Cc2c[nH]c3ccccc23)NC(=O)[C@H](CCCNC(=N)N)N(C)C(=O)[C@@H](Cc2ccccc2)NC(=O)[C@H](Cc2c[nH]cn2)NC1=O [^177Lu-labeled CCZ01148, metal not drawn] ?
Outgoing: 1.4
